The binders listed here are annotated with their Bmax.
biological target: T1, rat BCMA on cells (rat); test: FACS, 293T-ratBCMA cells
T1 construct: whole, on cells

Some binders with known Bmax results, for comparison:
10E10 (antibody, V domains shown, Chicken HybriFree-derived antibody; also called Antibody 46) VH: AVTLDESGGGLQTPGGGLSLVCKASGFTFSSYGMGWMRQAPGKGLEFVARINSGGSSYTDYGSAVKGRATISRDDGQSTVRLQLNNLRAEDTGIYYCTRGGGGASIDGWGHGTEVIVSS VL: ALTQPSSVSANPGETVKITCSGGGNYAGSYYYGWYQQKSPGSAPLTVIYNSNNRPSDIPSRFSGSLSGSTGTLTITGVRAEDEAVYFCGGFDSSTDAIFGAGTTLTVL
906 MFI
9H1 (antibody, V domains shown, Chicken HybriFree-derived antibody; also called Antibody 44) VH: AVTLDESGGGLQTPGGALSLVCKGSGFTFSDYGMGWMRQAPGKGLQYVARINSAGSDTNYGSAVKGRATISRDDGQSTVRLQLSSLRAEDTGIYYCTRGGGGASIDGWGHGTEVIVSS VL: ALTQPSSVSANPGETVKITCSGGGSYYGSYYYGWYQQKSPGSAPVTLIYNNNNRPSDIPSRFSGSTSGSTGTLTITGVRAEDEAVYYCGSFDSSTDAIFGAGTTLTVL
3450 MFI
9A5 (antibody, V domains shown, Chicken HybriFree-derived antibody; also called Antibody 42) VH: AVTLDESGGGLQTPGGAVSLVCKASGFSISDYGMGWMRQAPGKGLQYVARIDHDGRYTDYGAVVKGRATISRDNGQSTVRLQLNNLRAEDTGTYYCTRGGGAASIDTWGHGTEVIVSS VL: ALTQPSSVSANPGETVKITCSGGGNYVGGYYYGWYQQKAPGSALVTLIYNNNNRPSNIPSRFSGSTSGSTSTLTITGVRAEDEAVYFCGSFDSSTDAIFGAGTTLTVL
2780 MFI
10F4 (antibody, V domains shown, Chicken HybriFree-derived antibody; also called Antibody 37) VH: AVTLDESGGGLQTPGGALSLVCKASGFTFSGYNMGWVRQAPGKGLEYVAGITYGTGSYTAYGAAVKGRATISRDNGQSTLRLQLNNLRAEDTATYYCARGGGLNSYGCSGANIDAWGHGTEVIVSS VL: ALTQPSSVSANLGGTVKITCSGGGNYFGSYYYGWYQQKAPGSAPVTVIYNNNNRPSDIPSRFSGSTSGSTSTLTISGVRAEDEAVYFCGGFDSSTDAIFGAGTTLTVL
410 MFI
10H1 (antibody, V domains shown, Chicken HybriFree-derived antibody; also called Antibody 45) VH: AVTLDESGGGLQTPGGALSLVCKASGFTFSGYGMGWMRQAPGKGLEYVARINSAGSDTDYGAAVKGRATISRDNGQSTVRLQLNNLRAEDTATYFCTRGGGGASIDGWGHGTEVIVSS VL: ALTQPSSVSANPGETVKITCSGGGNYYGSYYYGWYQQKAPGSAPVTVIYNNNNRPSNIPSRFSGSKSGSTGTLTITGVQAEDEAVYFCGGFDSSSDAIFGAGTTLTVL
4350 MFI

// moving on: another record for Bmax
Quick one: Bmax for 9E12 (antibody, V domains shown, Chicken HybriFree-derived antibody; also called Antibody 43) VH: AVTLDESGGGLQTPGGGLSLVCKASGFTFSDYGLGWMRQAPGKGLEYVARINSAGSGTYYGSAVDGRATISRDNGQSTVRLQLNNLRAEDTGTYYCTRGGGGASIDGWGHGTEVIVSS VL: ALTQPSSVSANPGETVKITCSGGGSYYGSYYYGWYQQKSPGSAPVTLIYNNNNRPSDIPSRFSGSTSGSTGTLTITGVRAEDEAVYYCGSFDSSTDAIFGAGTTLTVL ?
4690 MFI
